The reported measurements were obtained from patent US20160333095A1.

# target_under_test: human CD3 (UniProt P07766 22-207)
# Sequence (P07766 22-207): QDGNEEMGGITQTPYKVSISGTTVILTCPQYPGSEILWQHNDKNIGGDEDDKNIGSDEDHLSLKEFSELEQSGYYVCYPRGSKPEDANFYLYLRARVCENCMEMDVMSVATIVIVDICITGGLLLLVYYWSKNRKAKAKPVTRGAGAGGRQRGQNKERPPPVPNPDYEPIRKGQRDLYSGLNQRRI
# assay_info: FACS binding, Jurkat cells; Fig 1A

| binder | EC50 / µg/mL |
| --- | --- |
| IgG1-CD3-LFLEDA (antibody, V domains shown) VH: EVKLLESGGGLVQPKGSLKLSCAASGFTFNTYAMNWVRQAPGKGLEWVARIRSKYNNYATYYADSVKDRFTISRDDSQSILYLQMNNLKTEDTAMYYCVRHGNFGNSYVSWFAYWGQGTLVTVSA VL: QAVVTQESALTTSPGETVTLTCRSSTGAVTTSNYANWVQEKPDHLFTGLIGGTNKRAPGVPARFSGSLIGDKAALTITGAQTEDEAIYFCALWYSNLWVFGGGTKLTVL | 0.08 |
| IgG1-huCD3-H1L2 (antibody, V domains shown) VH: EVKLVESGGGLVQPGGSLRLSCAASGFTFNTYAMNWVRQAPGKGLEWVARIRSKYNNYATYYADSVKDRFTISRDDSKSSLYLQMNNLKTEDTAMYYCVRHGNFGNSYVSWFAYWGQGTLVTVSS VL: QAVVTQEPSFSVSPGGTVTLTCRSSTGAVTTSNYANWVQQTPGQAFRGLIGGTNKRAPGVPARFSGSILGNKAALTITGAQADDESIYFCALWYSNLWVFGGGTKLTVL | 0.08 |
| IgG1-huCD3-H1L3 (antibody, V domains shown) VH: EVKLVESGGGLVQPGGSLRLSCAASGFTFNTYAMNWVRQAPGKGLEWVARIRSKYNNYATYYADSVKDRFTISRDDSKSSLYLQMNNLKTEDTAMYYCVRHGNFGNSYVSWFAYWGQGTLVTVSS VL: QAVVTQEPSFSVSPGGTVTLTCRSSTGAVTTSNYANWVQQTPGQAFRGLIGGTNKRAPGVPARFSGSILGNKAALTITGAQADDESDYYCALWYSNLWVFGGGTKLTVL | 0.06 |
| IgG1-huCD3-H3L3 (antibody, V domains shown) VH: EVKLVESGGGLVKPGRSLRLSCAASGFTFNTYAMNWVRQAPGKGLEWVARIRSKYNNYATYYADSVKDRFTISRDDSKSILYLQMNSLKTEDTAMYYCVRHGNFGNSYVSWFAYWGQGTLVTVSS VL: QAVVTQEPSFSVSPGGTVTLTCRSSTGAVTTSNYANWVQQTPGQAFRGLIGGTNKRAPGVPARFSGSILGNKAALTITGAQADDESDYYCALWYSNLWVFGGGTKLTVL | 0.02 |
